Target: UniProt:P08684
Sequence (P08684 whole entry): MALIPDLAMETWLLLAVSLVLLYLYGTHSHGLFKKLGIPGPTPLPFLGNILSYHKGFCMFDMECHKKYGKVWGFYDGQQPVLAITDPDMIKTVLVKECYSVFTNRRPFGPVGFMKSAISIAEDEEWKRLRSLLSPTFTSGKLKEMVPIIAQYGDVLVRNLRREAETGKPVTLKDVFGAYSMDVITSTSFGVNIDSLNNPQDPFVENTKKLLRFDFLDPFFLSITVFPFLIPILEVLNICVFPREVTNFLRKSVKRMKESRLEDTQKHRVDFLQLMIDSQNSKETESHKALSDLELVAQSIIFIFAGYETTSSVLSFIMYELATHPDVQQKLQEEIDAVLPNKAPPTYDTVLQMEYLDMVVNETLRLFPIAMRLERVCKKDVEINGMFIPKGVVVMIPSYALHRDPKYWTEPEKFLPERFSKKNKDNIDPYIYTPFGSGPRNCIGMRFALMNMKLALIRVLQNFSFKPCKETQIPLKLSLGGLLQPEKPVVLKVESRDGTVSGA
Measurement Name: IC50 (µM)
Give a bare numeral; the unit µM is implied.

Quick one: IC50 for CCn1cc(C(=O)N2CCc3ccsc3C2Cc2ccc(OC)c(OC)c2)c2ccccc21 (racemic) ?
3

###

Experiment: Fraction unbound in rat plasma
Type: ADME, cell-free
Measurement Name: fraction unbound

Quick one: fraction unbound for `COc1ccc(C[C@@H]2CCCN2C(=O)c2nc(C)sc2-c2ccc3c(c2)OCO3)cc1OC` ?
0.027

###

Target: Orexin receptor type 2 (Homo sapiens, UniProt O43614)
Sequence (O43614 whole entry): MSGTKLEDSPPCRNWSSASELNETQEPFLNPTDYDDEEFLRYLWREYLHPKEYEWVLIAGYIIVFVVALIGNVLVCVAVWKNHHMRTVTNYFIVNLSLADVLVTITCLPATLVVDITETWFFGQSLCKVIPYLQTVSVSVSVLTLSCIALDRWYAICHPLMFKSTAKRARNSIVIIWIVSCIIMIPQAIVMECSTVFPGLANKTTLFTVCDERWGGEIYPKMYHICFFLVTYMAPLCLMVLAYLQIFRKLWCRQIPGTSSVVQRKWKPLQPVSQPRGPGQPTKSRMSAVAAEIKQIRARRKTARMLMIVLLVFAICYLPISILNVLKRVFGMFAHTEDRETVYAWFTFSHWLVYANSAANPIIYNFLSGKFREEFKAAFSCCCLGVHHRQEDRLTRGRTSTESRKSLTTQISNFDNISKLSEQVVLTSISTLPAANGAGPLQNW
Experiment: Inhibition of human orexin-2 receptor expressed in CHO cells assessed as calcium release preincubated for 120 mins followed by addition of orexin-A by fluo-4 AM based-FLIPR analysis
Measurement Name: pIC50
Entry type: numeric. Quantity: pIC50, the -log10 of concentration in molar units.

Example entries and their recorded answers appear below.
COc1ccc(-c2sc(C)nc2C(=O)N2CCC[C@H]2Cc2ccc(OC)c(OC)c2)cc1 = 8.00
COc1ccc(C[C@@H]2CCCN2C(=O)c2nc(C)sc2-c2cccc(Cl)c2)cc1OC = 8.20
COc1ccc(C[C@@H]2CCCN2C(=O)c2ccccc2-c2nc(C)no2)cc1OC = 7.92
COc1cccc(C[C@@H]2CCCN2C(=O)c2nc(C)sc2-c2cccc(C)c2)c1Cl = 7.80
COc1ccc(C[C@@H]2CCCN2C(=O)c2nc(C)sc2-c2ccc3c(c2)CCO3)cc1OC = 8.10
COc1ccc(CCC2CCCCN2C(=O)c2cc(C)ccc2-n2nccn2)cc1OC (racemic) = 7.80

Turning now to a further record.
Quick one: pIC50 for `COc1ccc(C[C@@H]2CCCN2C(=O)c2cc(C)ccc2-n2nccn2)cc1OC` ?
8.08
